assayed_system: SMARCA4 (Homo sapiens, UniProt P51532)
Construct: endogenous in cells; host or cells: NCI-H520 (given as NCIH520 / NCIH1520 / H520)
Sequence (P51532 whole entry): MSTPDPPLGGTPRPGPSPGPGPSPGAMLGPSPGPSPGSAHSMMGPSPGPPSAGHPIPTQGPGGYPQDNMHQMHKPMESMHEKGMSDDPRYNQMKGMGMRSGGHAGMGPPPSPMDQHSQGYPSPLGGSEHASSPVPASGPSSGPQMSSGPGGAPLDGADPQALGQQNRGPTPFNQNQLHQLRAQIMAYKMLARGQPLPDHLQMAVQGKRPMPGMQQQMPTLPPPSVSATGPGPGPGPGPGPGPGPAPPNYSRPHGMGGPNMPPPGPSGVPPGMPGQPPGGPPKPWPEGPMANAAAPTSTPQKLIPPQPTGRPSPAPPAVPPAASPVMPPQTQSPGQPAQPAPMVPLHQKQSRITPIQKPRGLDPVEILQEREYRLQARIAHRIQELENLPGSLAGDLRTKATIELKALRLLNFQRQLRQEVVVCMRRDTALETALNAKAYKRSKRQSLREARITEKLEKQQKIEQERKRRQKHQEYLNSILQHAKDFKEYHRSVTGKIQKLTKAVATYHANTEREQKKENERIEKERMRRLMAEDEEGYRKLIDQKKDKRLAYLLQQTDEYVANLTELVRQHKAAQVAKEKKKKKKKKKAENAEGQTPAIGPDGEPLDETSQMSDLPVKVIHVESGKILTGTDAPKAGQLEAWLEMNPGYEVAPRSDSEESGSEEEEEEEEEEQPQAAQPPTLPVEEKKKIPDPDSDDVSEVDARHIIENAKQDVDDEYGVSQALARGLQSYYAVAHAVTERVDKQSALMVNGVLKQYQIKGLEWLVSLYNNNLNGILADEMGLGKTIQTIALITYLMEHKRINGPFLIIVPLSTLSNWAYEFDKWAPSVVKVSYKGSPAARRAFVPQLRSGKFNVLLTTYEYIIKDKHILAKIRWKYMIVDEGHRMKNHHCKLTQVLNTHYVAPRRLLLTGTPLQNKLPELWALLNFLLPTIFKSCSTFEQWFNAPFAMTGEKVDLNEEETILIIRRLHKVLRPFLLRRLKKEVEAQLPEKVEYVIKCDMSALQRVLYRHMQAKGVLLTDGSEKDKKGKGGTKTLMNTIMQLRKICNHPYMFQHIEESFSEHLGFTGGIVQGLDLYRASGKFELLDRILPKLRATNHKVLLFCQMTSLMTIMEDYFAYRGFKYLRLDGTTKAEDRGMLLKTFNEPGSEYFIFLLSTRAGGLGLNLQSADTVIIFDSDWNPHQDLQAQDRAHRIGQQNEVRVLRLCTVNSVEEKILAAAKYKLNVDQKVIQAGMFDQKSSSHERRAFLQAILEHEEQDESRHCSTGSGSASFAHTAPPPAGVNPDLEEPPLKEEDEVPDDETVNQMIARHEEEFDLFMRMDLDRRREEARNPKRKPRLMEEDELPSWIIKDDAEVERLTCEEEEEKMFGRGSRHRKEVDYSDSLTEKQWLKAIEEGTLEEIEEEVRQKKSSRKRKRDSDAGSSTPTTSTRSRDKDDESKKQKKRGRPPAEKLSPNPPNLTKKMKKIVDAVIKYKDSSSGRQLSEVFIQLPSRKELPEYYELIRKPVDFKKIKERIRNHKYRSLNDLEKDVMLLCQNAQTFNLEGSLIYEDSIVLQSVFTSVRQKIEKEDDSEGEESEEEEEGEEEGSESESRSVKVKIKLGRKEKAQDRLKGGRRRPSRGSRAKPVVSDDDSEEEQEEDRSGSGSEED
protocol_summary: SMARCA4 protein degradation in NCIH520 cells by In Cell Western (ICW)
Format: cell-based
condition_details: NCI-H520, overnight incubation (maximum 18 hours), highest concentration 1 μM, read-out: Dmax % (SM4_H520): maximum SMARCA4 degradation within the concentrations tested
Procedure: Compounds were dissolved in DMSO to make 10 mM stock and 3-fold series dilutions were further conducted keeping the highest concentration 10 μM. NCIH11693 and NCIH1520 cells were maintained in PRMI 1640 medium (Corning Cellgro, Catalog #: 10-040-CV) supplemented with 10% v/v FBS (GE Healthcare, Catalog #: SH30910.03) by splitting 1:3 twice a week. SMACRA2 and SMARCA4 Protein Degradation DC50 Values in NCIH1693 and NCIH520 Cells by in Cell Western (ICW) Analysis. […]
For each of the compounds below, state its Dmax.

The compound listed as O=C1CCC(N2Cc3cc(CCN4CCC(CCc5cnc(N6CCN7c8cc(-c9ccccc9O)nnc8NC[C@@H]7C6)nc5)CC4)ccc3C2=O)C(=O)N1 (stereo partly drawn) [Example 5] shows Dmax equal to > 75%

Data point: O=C1CCC(N2C(=O)c3ccc(N4CCC(OCCN5CCC(N6CCN7c8cc(-c9ccccc9O)nnc8NC[C@H]7C6)CC5)CC4)cc3C2=O)C(=O)N1 (stereo partly drawn) [Example 16] ; Dmax = 50 to 75%

Query O=C1CCC(n2c3ccc(CCCN4CCC(c5cnc(N6CCN7c8cc(-c9ccccc9O)nnc8NC[C@@H]7C6)nc5)CC4)cc3c3cccnc32)C(=O)N1 (stereo partly drawn) [Example 18] yields Dmax of > 75%

Form: compound = O=C1CCC(n2c3ccc(CCCN4CCC(N5CCN6c7cc(-c8ccccc8O)nnc7NC[C@H]6C5)CC4)cc3c3cccnc32)C(=O)N1 (stereo partly drawn) [Example 19] ; Dmax = > 75%

Lab note: measured Dmax of O=C1CCC(N2C(=O)c3ccc(N4CCC(N5CCC(N6CCN7c8cc(-c9ccccc9O)nnc8NC[C@H]7C6)CC5)C4)cc3C2=O)C(=O)N1 (stereo partly drawn) [Example 13] was > 75%

Value of Dmax reported for the compound O=C1CCC(N2Cc3ccc(N4CCN(CCN5CCC(N6CCN7c8cc(-c9ccccc9O)nnc8NC[C@H]7C6)CC5)CC4)cc3C2=O)C(=O)N1 (stereo partly drawn) [Example 17] is > 75%
